The reported measurements were obtained from ChEMBL document CHEMBL5291721.

# Gastrin/cholecystokinin type B receptor (Homo sapiens, UniProt P32239): AC50 values follow; note: assay procedure not described here
# Sequence (P32239 whole entry): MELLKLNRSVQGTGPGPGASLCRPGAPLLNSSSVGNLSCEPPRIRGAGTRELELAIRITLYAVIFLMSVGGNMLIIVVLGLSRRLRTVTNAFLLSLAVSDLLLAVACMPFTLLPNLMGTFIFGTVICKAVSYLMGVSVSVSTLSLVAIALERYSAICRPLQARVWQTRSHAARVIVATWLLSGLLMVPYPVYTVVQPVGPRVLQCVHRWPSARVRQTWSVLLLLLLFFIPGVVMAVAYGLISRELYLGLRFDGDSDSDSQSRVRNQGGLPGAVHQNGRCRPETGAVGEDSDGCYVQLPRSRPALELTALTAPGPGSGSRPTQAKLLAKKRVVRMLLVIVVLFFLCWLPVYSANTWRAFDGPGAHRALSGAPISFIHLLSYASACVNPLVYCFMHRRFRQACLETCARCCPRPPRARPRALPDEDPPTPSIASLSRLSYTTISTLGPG
measured_parameter: AC50

Cc1cccc(C)c1NC(=O)CC12CCCN1CCC2 [PILSICAINIDE]
> 30 µM
COc1cc2[nH]c(C)c(CCN3CCN(c4ccccc4)CC3)c2cc1OC
> 30 µM
COc1cc(N)c(Cl)cc1C(=O)NC1CCN(CCCOc2ccc(F)cc2)CC1OC (stereo not given) [CISAPRIDE]
> 30 µM
CCCNC(=O)NS(=O)(=O)c1ccc(Cl)cc1 [CHLORPROPAMIDE]
> 30 µM
COc1cc(C(C)=O)ccc1OCCCN1CCC(c2noc3cc(F)ccc23)CC1
9.33 µM
